Target: RIPK3-RIPK1 necrosome (Mus musculus)
Construct: RIPK3 was immunoprecipitated from lysates of PR8-infected MEFs; endogenous in cells; host or cells: wild-type mouse embryo fibroblasts (MEFs)
Sequence (Q9QZL0 whole entry): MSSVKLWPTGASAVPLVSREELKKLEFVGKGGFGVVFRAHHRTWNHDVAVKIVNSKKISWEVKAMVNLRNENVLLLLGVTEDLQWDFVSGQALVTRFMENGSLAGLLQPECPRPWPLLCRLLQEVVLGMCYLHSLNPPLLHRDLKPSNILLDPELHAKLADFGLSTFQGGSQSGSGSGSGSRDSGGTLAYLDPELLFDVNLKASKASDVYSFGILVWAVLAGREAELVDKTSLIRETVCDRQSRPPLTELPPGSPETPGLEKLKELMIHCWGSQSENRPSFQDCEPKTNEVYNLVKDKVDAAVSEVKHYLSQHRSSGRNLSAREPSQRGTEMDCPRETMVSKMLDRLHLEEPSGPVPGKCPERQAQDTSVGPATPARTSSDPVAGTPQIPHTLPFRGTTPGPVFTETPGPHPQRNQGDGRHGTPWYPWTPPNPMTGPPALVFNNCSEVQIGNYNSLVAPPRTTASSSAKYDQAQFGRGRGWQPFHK
Test: IAV-induced RIPK3-RIPK1 necrosome formation (RIPK3 immunoprecipitation) in MEFs
Type: cell-based, murine
Conditions: PR8-infected MEFs, cells pre-treated with agent; RIPK3 immunoprecipitation
*1 amine or outer side, *2 acyl side, *3 side chain or, on linkers, in order; H or OH if unused. Where a SMILES comes first, the peptide text is derived from it. Bridges are numbered along the chain shown (N, C = ends). Roman numbers before positions name the chains, in order. [ ]: non-standard residue; d: D form. Actinocin(9to1) = Cc1c2oc3c(C)ccc(C(=O)[*:1])c3nc-2c(C(=O)[*:2])c(N)c1=O; NMeV = CN[C@H](C(=O)O)C(C)C; Sar = CNCC(=O)O
measure: IAV (PR8)-induced RIPK3-RIPK1 necrosome / complex formation

>  <compound>
C[C@@H]1C[C@@H]([C@H](O)CC2CC(=O)NC(=O)C2)C(=O)[C@@H](C)C1 [CHX, cycloheximide]

>  <value observed>
effectively prevented

$$$$
>  <compound>
Cc1c2oc3c(C)ccc(C(=O)N[C@@H]4C(=O)N[C@H](C(C)C)C(=O)N5CCC[C@H]5C(=O)N(C)CC(=O)N(C)[C@@H](C(C)C)C(=O)O[C@@H]4C)c3nc-2c(C(=O)N[C@@H]2C(=O)N[C@H](C(C)C)C(=O)N3CCC[C@H]3C(=O)N(C)CC(=O)N(C)[C@@H](C(C)C)C(=O)O[C@@H]2C)c(N)c1=O [ActD, Actinomycin D] (I: T[dV]P[Sar][NMeV] / II: T[dV]P[Sar][NMeV]; ester I:1-I:C, II:1-II:C; linker I:N-II:N via Actinocin(9to1))

>  <value observed>
effectively prevented

$$$$
